All values here come from patent US20140147444A1.

# Target Under Test: T1, human OPGbp [143-317] (human, UniProt O14788 143-317)
# T1 construct: also called OPGL
# T1 sequence (looked up): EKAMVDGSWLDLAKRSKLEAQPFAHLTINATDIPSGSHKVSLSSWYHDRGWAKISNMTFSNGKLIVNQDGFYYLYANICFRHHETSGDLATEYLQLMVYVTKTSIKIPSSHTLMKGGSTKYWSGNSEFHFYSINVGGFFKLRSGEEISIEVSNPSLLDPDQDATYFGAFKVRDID
# Protocol Description: SPR (BIAcore), immobilized OPGbp [143-317]
Answer each item with its documented koff.
Answers are plain numbers, in s⁻¹.

The following binders have reported results that may help.
“AT” antibody variant N98W (heavy chain CDR3) (antibody, name in Kabat numbering, V domains shown, not shown: human IgG1 CH1, hinge, CH2 and CH3) VH: QVQLVQSGAEVRKPGASVKVSCKASGYDFSNYAIHWVRQAPGQRLEWMGWINAGNGNTKFSQKFQGRITVTRDTAASTAYMELRSLRSEDTAVYYCARDSSWMVRGIIIAYYFDYWGQGTLVTVSS VL: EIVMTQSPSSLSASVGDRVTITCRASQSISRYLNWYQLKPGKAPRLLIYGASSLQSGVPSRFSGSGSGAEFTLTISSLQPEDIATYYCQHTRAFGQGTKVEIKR: 0.00768
“AT” antibody variant N98Q (heavy chain CDR3) (antibody, name in Kabat numbering, V domains shown, not shown: human IgG1 CH1, hinge, CH2 and CH3) VH: QVQLVQSGAEVRKPGASVKVSCKASGYDFSNYAIHWVRQAPGQRLEWMGWINAGNGNTKFSQKFQGRITVTRDTAASTAYMELRSLRSEDTAVYYCARDSSQMVRGIIIAYYFDYWGQGTLVTVSS VL: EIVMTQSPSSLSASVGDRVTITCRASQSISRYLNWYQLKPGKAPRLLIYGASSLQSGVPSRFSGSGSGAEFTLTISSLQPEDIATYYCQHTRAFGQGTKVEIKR: 0.00151
“AT” antibody variant N98L (heavy chain CDR3) (antibody, name in Kabat numbering, V domains shown, not shown: human IgG1 CH1, hinge, CH2 and CH3) VH: QVQLVQSGAEVRKPGASVKVSCKASGYDFSNYAIHWVRQAPGQRLEWMGWINAGNGNTKFSQKFQGRITVTRDTAASTAYMELRSLRSEDTAVYYCARDSSLMVRGIIIAYYFDYWGQGTLVTVSS VL: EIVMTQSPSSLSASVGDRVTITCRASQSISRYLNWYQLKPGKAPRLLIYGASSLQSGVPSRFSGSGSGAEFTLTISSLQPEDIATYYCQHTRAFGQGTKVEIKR: 0.00122

// for each binder below, give its koff
1. “AT” antibody variant N98V (heavy chain CDR3) (antibody, name in Kabat numbering, V domains shown, not shown: human IgG1 CH1, hinge, CH2 and CH3) VH: QVQLVQSGAEVRKPGASVKVSCKASGYDFSNYAIHWVRQAPGQRLEWMGWINAGNGNTKFSQKFQGRITVTRDTAASTAYMELRSLRSEDTAVYYCARDSSVMVRGIIIAYYFDYWGQGTLVTVSS VL: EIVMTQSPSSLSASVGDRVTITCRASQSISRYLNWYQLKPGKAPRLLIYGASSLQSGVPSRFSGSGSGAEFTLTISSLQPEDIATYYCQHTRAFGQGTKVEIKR
2. “AT” antibody variant N98H (heavy chain CDR3) (antibody, name in Kabat numbering, V domains shown, not shown: human IgG1 CH1, hinge, CH2 and CH3) VH: QVQLVQSGAEVRKPGASVKVSCKASGYDFSNYAIHWVRQAPGQRLEWMGWINAGNGNTKFSQKFQGRITVTRDTAASTAYMELRSLRSEDTAVYYCARDSSHMVRGIIIAYYFDYWGQGTLVTVSS VL: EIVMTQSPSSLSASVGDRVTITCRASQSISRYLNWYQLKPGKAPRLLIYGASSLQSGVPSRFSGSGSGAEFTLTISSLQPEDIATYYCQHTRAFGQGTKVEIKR

**A:**
1: 0.000197; 2: 0.00234

// for each binder below, give its koff
1. “AT” antibody variant N98M (heavy chain CDR3) (antibody, name in Kabat numbering, V domains shown, not shown: human IgG1 CH1, hinge, CH2 and CH3) VH: QVQLVQSGAEVRKPGASVKVSCKASGYDFSNYAIHWVRQAPGQRLEWMGWINAGNGNTKFSQKFQGRITVTRDTAASTAYMELRSLRSEDTAVYYCARDSSMMVRGIIIAYYFDYWGQGTLVTVSS VL: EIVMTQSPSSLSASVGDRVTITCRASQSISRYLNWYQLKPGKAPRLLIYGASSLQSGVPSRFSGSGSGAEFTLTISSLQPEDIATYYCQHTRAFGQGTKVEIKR
2. “AT” antibody variant N98Y (heavy chain CDR3) (antibody, name in Kabat numbering, V domains shown, not shown: human IgG1 CH1, hinge, CH2 and CH3) VH: QVQLVQSGAEVRKPGASVKVSCKASGYDFSNYAIHWVRQAPGQRLEWMGWINAGNGNTKFSQKFQGRITVTRDTAASTAYMELRSLRSEDTAVYYCARDSSYMVRGIIIAYYFDYWGQGTLVTVSS VL: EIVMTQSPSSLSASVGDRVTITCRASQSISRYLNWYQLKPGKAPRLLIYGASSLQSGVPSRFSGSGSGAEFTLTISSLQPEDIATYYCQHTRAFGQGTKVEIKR
3. “AT” antibody variant N98I (heavy chain CDR3) (antibody, name in Kabat numbering, V domains shown, not shown: human IgG1 CH1, hinge, CH2 and CH3) VH: QVQLVQSGAEVRKPGASVKVSCKASGYDFSNYAIHWVRQAPGQRLEWMGWINAGNGNTKFSQKFQGRITVTRDTAASTAYMELRSLRSEDTAVYYCARDSSIMVRGIIIAYYFDYWGQGTLVTVSS VL: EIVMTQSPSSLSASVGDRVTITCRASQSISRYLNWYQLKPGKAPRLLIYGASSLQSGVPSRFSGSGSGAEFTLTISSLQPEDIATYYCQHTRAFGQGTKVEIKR
4. “AT” antibody variant N98F (heavy chain CDR3) (antibody, name in Kabat numbering, V domains shown, not shown: human IgG1 CH1, hinge, CH2 and CH3) VH: QVQLVQSGAEVRKPGASVKVSCKASGYDFSNYAIHWVRQAPGQRLEWMGWINAGNGNTKFSQKFQGRITVTRDTAASTAYMELRSLRSEDTAVYYCARDSSFMVRGIIIAYYFDYWGQGTLVTVSS VL: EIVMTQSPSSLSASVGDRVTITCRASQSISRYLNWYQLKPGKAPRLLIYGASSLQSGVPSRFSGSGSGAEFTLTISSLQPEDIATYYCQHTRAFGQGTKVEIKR
5. “AT” antibody variant N98D (heavy chain CDR3) (antibody, name in Kabat numbering, V domains shown, not shown: human IgG1 CH1, hinge, CH2 and CH3) VH: QVQLVQSGAEVRKPGASVKVSCKASGYDFSNYAIHWVRQAPGQRLEWMGWINAGNGNTKFSQKFQGRITVTRDTAASTAYMELRSLRSEDTAVYYCARDSSDMVRGIIIAYYFDYWGQGTLVTVSS VL: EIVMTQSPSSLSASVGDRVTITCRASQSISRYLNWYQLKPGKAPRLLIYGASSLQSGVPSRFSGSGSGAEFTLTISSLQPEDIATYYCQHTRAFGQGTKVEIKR

**A:**
1: 0.0814; 2: 0.0112; 3: 0.00436; 4: 0.099; 5: 0.00312
